measurement_target: T1, human immunoglobulin E (hIgE) (human, UniProt P01854-1 1-428)
T1 construct: also called human IgE; Native IgE (Abcam)
T1 sequence (P01854 whole entry): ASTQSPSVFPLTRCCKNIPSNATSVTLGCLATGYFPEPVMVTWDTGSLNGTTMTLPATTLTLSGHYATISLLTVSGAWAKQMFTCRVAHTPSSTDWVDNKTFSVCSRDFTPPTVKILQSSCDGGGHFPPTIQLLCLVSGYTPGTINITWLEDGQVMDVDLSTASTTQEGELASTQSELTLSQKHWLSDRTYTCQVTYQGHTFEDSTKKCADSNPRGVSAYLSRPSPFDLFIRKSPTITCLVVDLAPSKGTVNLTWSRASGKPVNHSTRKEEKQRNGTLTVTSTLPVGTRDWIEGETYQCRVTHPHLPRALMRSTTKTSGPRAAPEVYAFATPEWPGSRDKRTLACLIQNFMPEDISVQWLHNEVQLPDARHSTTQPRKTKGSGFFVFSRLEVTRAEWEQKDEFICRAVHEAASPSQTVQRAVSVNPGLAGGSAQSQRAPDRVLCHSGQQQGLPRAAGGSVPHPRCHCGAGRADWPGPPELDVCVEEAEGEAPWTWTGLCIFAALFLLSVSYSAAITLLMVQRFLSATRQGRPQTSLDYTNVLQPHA
procedure_summary: SPR (Biacore) on hIgE
readout_type: KD Ratio pH 5.5/pH 7.4
Respond numerically, and do not add a unit to the figure.

Below: 2 binders and their reported KD Ratio pH 5.5/pH 7.4.
INSERT INTO measurements (binder, readout_type, value_observed) VALUES
  ('CL-2C mAb 37 (antibody, V domains shown, also called VKWT + VH33H100CH) VH: QVQLVQSGAEVMKPGSSVKVSCKASGYTFSWYHLEWVRQAPGHGLEWMGEIDPGTFTTNYNEKFKARVTFTADTSTSTAYMELSSLRSEDTAVYYCARFSHFSGSNHDYFDYWGQGTLVTVSS VL: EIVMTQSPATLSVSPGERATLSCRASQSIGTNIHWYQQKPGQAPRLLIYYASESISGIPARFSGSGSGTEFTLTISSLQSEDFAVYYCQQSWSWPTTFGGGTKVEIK', 'KD Ratio pH 5.5/pH 7.4', 11.1),
  ('CL-2C mAb 8 (antibody, V domains shown, also called VK50H92D89H + VH33H100BH) VH: QVQLVQSGAEVMKPGSSVKVSCKASGYTFSWYHLEWVRQAPGHGLEWMGEIDPGTFTTNYNEKFKARVTFTADTSTSTAYMELSSLRSEDTAVYYCARFSHFSGSHYDYFDYWGQGTLVTVSS VL: EIVMTQSPATLSVSPGERATLSCRASQSIGTNIHWYQQKPGQAPRLLIYHASESISGIPARFSGSGSGTEFTLTISSLQSEDFAVYYCHQSDSWPTTFGGGTKVEIK', 'KD Ratio pH 5.5/pH 7.4', 2.8);

// below: KD Ratio pH 5.5/pH 7.4 requested for another binder
Value of KD Ratio pH 5.5/pH 7.4 reported for the binder CL-2C mAb 14 (antibody, V domains shown, also called VK50H94H + VH33H100AH) VH: QVQLVQSGAEVMKPGSSVKVSCKASGYTFSWYHLEWVRQAPGHGLEWMGEIDPGTFTTNYNEKFKARVTFTADTSTSTAYMELSSLRSEDTAVYYCARFSHFSGHNYDYFDYWGQGTLVTVSS VL: EIVMTQSPATLSVSPGERATLSCRASQSIGTNIHWYQQKPGQAPRLLIYHASESISGIPARFSGSGSGTEFTLTISSLQSEDFAVYYCQQSWSHPTTFGGGTKVEIK is 3.2

The values you see were collected from patent US20220177604A1.
